Biological target: human TLR7 (Homo sapiens)
Construct: HA; host or cells: 293XL-hTLR7-HA (HEK293)
Sequence (Q9NYK1 27-1049): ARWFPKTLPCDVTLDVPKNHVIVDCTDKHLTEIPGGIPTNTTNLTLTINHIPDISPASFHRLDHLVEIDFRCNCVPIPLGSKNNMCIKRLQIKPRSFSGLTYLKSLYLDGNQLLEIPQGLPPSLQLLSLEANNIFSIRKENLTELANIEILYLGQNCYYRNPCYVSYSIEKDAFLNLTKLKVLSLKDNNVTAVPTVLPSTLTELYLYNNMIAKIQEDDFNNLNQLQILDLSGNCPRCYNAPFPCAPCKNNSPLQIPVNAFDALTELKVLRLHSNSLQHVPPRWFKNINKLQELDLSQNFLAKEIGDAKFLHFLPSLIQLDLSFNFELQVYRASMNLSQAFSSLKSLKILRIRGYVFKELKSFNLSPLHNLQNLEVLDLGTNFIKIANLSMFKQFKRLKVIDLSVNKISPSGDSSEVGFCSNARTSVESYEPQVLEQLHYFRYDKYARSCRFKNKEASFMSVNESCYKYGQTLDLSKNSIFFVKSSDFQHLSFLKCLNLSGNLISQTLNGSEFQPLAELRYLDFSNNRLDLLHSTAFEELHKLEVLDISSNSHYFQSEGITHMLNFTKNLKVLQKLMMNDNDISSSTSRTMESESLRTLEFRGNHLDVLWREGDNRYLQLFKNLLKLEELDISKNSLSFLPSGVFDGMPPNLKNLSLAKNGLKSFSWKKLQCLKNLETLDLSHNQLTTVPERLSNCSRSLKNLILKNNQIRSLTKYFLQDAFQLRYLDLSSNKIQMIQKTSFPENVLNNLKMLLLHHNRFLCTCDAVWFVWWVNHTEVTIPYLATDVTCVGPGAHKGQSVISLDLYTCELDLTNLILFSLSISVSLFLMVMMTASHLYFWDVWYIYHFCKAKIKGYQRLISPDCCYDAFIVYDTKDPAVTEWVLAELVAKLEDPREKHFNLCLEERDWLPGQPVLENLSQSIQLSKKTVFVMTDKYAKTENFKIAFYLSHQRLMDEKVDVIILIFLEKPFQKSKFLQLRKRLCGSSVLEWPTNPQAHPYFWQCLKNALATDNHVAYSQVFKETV
Assay: HEK-TLR7 NF-κB-luciferase reporter, R848 stimulation
Assay type: cell-based
Details: MOE-modified ASO at 100 nM; averaged NF-κB-Luciferase relative to R848 condition
// map TLR7 100 nM to label using lower band: < 0.4; central band: ≥ 0.4 and < 0.5; upper band: ≥ 0.5

Answered cases to consult:
TAGGCACTTTGCCTCCTTCT (antisense; 2'-MOE modified, pattern not given here) [EGFR-2859 MOE] : central band
TTCTGCAGCTTCCTTGTCCT (antisense; 2'-MOE modified, pattern not given here) [CTNN2B-2136 MOE] : lower band
GGAGATTTCAGAGCAGCTTC (antisense; 2'-MOE modified, pattern not given here) [EGFR-4885 MOE] : lower band
GCTTCAGGCGCTGCCTTGCC (antisense; 2'-MOE modified, pattern not given here) [CAMSAP1-2709 MOE] : upper band
CACCCACTTGGCAGACCATC (antisense; 2'-MOE modified, pattern not given here) [CTNN2B-1576 MOE] : upper band
TGTGATGGCCTCCCATCTCC (antisense; 2'-MOE modified, pattern not given here) [HPRT-332 MOE] : lower band
GGCATCCACCACGTCGTCCA (antisense; 2'-MOE modified, pattern not given here) [EGFR-3266 MOE] : lower band
GAGGTCTTGGCTTCGTGGAG (antisense; 2'-MOE modified, pattern not given here) [MB21D1-523 MOE] : central band
GATGGCCTCCCATCTCCTTC (antisense; 2'-MOE modified, pattern not given here) [HPRT-329 MOE] : upper band
ACTGACTGTCTTGAGGGTTC (antisense; 2'-MOE modified, pattern not given here) [MB21D1-1483 MOE] : upper band

// query Lab log: TGGCAGGCTCAGTGATGTCT (antisense; 2'-MOE modified, pattern not given here) [CTNN2B-1642 MOE] — assign TLR7 100 nM category
// result central band

// query Same again, this time with TGGGCTGGAATCCGAGTTAT (antisense; 2'-MOE modified, pattern not given here) [EGFR-4705 MOE]
// result lower band

// query Same again, this time with GGGAAAGGTTATGCAAGGTC (antisense; 2'-MOE modified, pattern not given here) [CTNN2B-916 MOE]
// result upper band

// query Same again, this time with GGTGGTGGCCACCCATCTCA (antisense; 2'-MOE modified, pattern not given here) [CTNN2B-2479 MOE]
// result central band

// query Same again, this time with TTGGCTCGGCTTGCCTACTT (antisense; 2'-MOE modified, pattern not given here) [CAMSAP1-5594 MOE]
// result upper band

// query Same again, this time with TAGTCAAGGGCATATCCTAC (antisense; 2'-MOE modified, pattern not given here) [HPRT-732 MOE]
// result central band

// query Same again, this time with GGTTTTGGCTGGGATCAAGT (antisense; 2'-MOE modified, pattern not given here) [CAMSAP1-4697 MOE]
// result lower band

// query Same again, this time with GGTGGTCCACAACCCCTTTC (antisense; 2'-MOE modified, pattern not given here) [MB21D1-697 MOE]
// result upper band

// query Same again, this time with GAGTCTCTGGAGCTTCCTCT (antisense; 2'-MOE modified, pattern not given here) [CAMSAP1-2456 MOE]
// result central band

====

biological target: cGAS (Homo sapiens, UniProt Q8N884); test: ISD70-driven IP-10 (and IFN-β) production in THP-1 cells, ELISA; assay type: cell-based; set-up: endogenous in cells; host or cells: THP-1 (undifferentiated); details: ASO 100 nM; relative to ISD70 only, given as fraction
Sequence (Q8N884 whole entry): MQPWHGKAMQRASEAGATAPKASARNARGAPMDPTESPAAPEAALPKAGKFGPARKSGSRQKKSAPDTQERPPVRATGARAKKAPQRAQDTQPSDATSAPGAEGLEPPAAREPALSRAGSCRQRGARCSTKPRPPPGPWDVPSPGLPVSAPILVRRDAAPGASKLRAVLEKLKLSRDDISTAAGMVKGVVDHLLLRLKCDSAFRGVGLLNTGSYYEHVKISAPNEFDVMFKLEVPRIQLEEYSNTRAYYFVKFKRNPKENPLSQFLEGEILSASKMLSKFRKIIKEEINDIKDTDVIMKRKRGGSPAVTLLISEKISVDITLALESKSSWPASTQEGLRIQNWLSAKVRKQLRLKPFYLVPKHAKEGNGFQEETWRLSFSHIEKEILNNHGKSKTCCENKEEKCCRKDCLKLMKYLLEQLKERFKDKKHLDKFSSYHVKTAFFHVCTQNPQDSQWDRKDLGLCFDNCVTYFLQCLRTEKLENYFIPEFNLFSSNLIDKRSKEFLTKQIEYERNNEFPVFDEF
Could you please report measured cGAS 100 nM (averaged IP-10 level relative to ISD70 condition) for the items listed next?

# annotated cases, reported cGAS 100 nM (averaged IP-10 level relative to ISD70 condition) shown
TGTCCTTGCACGTGGC (antisense; LNA-modified, pattern not given here) [EGFR-1016 LNA V1] : 0.678
TGCACACTTCGTACCC (antisense; LNA-modified, pattern not given here) [CAMSAP1-4916 LNA V1] : 0.572
CGCTTTTCTGTCTGGT (antisense; LNA-modified, pattern not given here) [CTNN2B-311 LNA KL] : 0.475
GTCCCCTGTTGACTGG (antisense; LNA-modified, pattern not given here) [HPRT LNA-489 KL] : 0.606
ATGGCCTCCCATCTCC (antisense; LNA-modified, pattern not given here) [HPRT LNA-330 V1] : 0.475
TCTTGGCTTCGTGGAG (antisense; LNA-modified, pattern not given here) [MB21D1-521 LNA V1] : 0.693

For every item below, please supply its cGAS 100 nM (averaged IP-10 level relative to ISD70 condition).
1. GCACTTCAGTCTGAGC (antisense; LNA-modified, pattern not given here) [MB21D1-719 LNA KL]
2. AGCTTCGAGGCCCCAG (antisense; LNA-modified, pattern not given here) [MB21D1-616 LNA V1]
3. CTTGGCTTCGTGGAGC (antisense; LNA-modified, pattern not given here) [MB21D1-520 LNA V1]
4. ACTTCGTGGGGTCCTT (antisense; LNA-modified, pattern not given here) [HPRT LNA-663 V1]
5. CCAGCAGGTCAGCAAA (antisense; LNA-modified, pattern not given here) [HPRT LNA-388 KL]

// result
0.797
0.648
0.666
0.937
0.552

For every item below, please supply its cGAS 100 nM (averaged IP-10 level relative to ISD70 condition).
1. TGTCTGGAAGCTTCCT (antisense; LNA-modified, pattern not given here) [CTNN2B-808 LNA V1]
2. GCCATCCACTTGATAG (antisense; LNA-modified, pattern not given here) [EGFR-2874 LNA V1]
3. CCACTTGGCAGACCAT (antisense; LNA-modified, pattern not given here) [CTNN2B-1575 LNA V1]

// result
1: 0.617; 2: 0.688; 3: 0.532

====

Could you please report measured cGAS-100 nM: averaged IP-10 levels relative to ISD70 for the items listed next?
target: cGAS (Homo sapiens); assay: ISD70-driven IP-10 (and IFN-β) production in THP-1 cells, ELISA; format: cell-based; design: endogenous in cells; host or cells: THP-1 (undifferentiated); conditions: THP-1; 100 nM ASO overnight, then ISD70 2.5 μg/ml 7-8 h; percentage of ISD70 only
In the oligonucleotide strings, read from the 5' end, every base follows the letter of its sugar. An asterisk marks phosphorothioate; unmarked linkages are phosphodiester. Other units and linkages are bracketed, terminal groups are in braces. A string of capitals states the bases alone. d = 2'-deoxy (DNA); m = 2'-O-methyl

# annotated cases, reported cGAS-100 nM: averaged IP-10 levels relative to ISD70 shown
mU*mG*mA*mC*mA*A*A*A*C*A*A*T*A*A*T*mA*mA*mC*mA*mG (mU*mG*mA*mC*mA*dA*dA*dA*dC*dA*dA*dT*dA*dA*dT*mA*mA*mC*mA*mG) [[LINC-PINT]384] : 88.79%
mU*mC*mU*mC*mU*C*T*G*G*T*C*C*C*A*T*mC*mC*mC*mU*mU (mU*mC*mU*mC*mU*dC*dT*dG*dG*dT*dC*dC*dC*dA*dT*mC*mC*mC*mU*mU; antisense) [[LINC-PINT]110] : 92.39%
mU*mA*mA*mA*mA*T*A*A*G*G*G*G*A*A*T*mA*mG*mG*mG*mG (mU*mA*mA*mA*mA*dT*dA*dA*dG*dG*dG*dG*dA*dA*dT*mA*mG*mG*mG*mG) [[CDKN2B-AS1]80] : 110.58%
mU*mU*mA*mA*mA*T*A*A*T*C*T*A*G*T*T*mU*mG*mA*mA*mG (UUAAATAATCTAGTTUGAAG; sugars from the 5' end m5 d10 m5, all phosphorothioate, methylation of C not given here) [[CDKN2B-AS1]132] : 52.20%

For every item below, please supply its cGAS-100 nM: averaged IP-10 levels relative to ISD70.
1. mA*mA*mG*mG*mU*G*G*C*C*A*C*A*G*G*C*mA*mA*mC*mG*mU (mA*mA*mG*mG*mU*dG*dG*dC*dC*dA*dC*dA*dG*dG*dC*mA*mA*mC*mG*mU; antisense) [[CDKN2B-AS1]2198]
2. mU*mC*mC*mC*mA*A*C*T*C*T*T*C*T*A*A*mC*mU*mC*mG*mU (mU*mC*mC*mC*mA*dA*dC*dT*dC*dT*dT*dC*dT*dA*dA*mC*mU*mC*mG*mU; antisense) [[LINC-PINT]1284 KL]
3. mA*mG*mG*mA*mU*T*A*A*A*A*C*A*G*A*T*mU*mA*mA*mU*mA (mA*mG*mG*mA*mU*dT*dA*dA*dA*dA*dC*dA*dG*dA*dT*mU*mA*mA*mU*mA) [[CDKN2B-AS1] 1775]
4. mU*mG*mA*mC*mA*T*T*T*C*G*T*G*G*C*T*mC*mC*mU*mA*mC (mU*mG*mA*mC*mA*dT*dT*dT*dC*dG*dT*dG*dG*dC*dT*mC*mC*mU*mA*mC; antisense) [[LINC-PINT]523 KL]
5. mG*mU*mC*mU*mC*C*A*T*G*T*C*C*C*A*G*mG*mC*mC*mU*mC (mG*mU*mC*mU*mC*dC*dA*dT*dG*dT*dC*dC*dC*dA*dG*mG*mC*mC*mU*mC) [[CDKN2B;AS1]2231]
6. mC*mU*mU*mG*mU*G*A*A*A*A*G*A*T*T*A*mU*mC*mU*mU*mC (mC*mU*mU*mG*mU*dG*dA*dA*dA*dA*dG*dA*dT*dT*dA*mU*mC*mU*mU*mC) [[CDKN2B-AS1]2139]

// result
60.48%
99.64%
88.54%
39.34%
84.16%
33.75%
